For each of the variants below, state its yeast fitness.
B1: tRNA (parent)
chain: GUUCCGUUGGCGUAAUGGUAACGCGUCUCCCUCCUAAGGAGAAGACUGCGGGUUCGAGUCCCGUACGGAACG

# Variants of: B1
# Protocol Text: yeast fitness relative to wild type (ratio to wild type); higher = fitter; tRNA-Arg(CCU), competitive growth, 37 C, YPD
Variants at the floor of the assay were thinned out.
Numbers only.

>>> test_result("G48A U54G")
0.686

Req: # input variant: A20U U26C U47C ; wanted: its yeast fitness
Resp: 0.534
